# Test system: SK-MEL-5
# MEASUREMENT PROTOCOL: NCI-60 one-dose screen
# Assay type: cell-based
# DETAILS: Homo sapiens; SK-MEL-5, Melanoma panel; single dose 10^−5 M; read-out: Growth inhibition %
We'd kindly ask you to apply these inhibition at 10 µM classes: lower level (below 40%), middle level (40% to below 60%), upper level (60% or more)

Q: Input c1ccc(CCNc2c3ccccc3nc3ccccc23)cc1 [Compound 23, Acridin-9-yl-phenethyl-amine] ; output its category
Result: lower level

Q: Input c1csc(-c2ccc(CNc3c4ccccc4nc4ccccc34)cc2)c1 [Compound 24] ; output its category
Result: upper level

Q: Input Cc1ccc2nc3ccccc3c(NCc3ccccc3)c2c1 [Compound 30, Benzyl-(2-methylacridin-9-yl)-amine] ; output its category
Result: middle level

Q: Input COc1ccc2nc3ccccc3c(NCc3ccc(Cl)cc3)c2c1 [Compound 29] ; output its category
Result: upper level

Q: Input COc1cccc(CNc2c3ccccc3nc3ccccc23)c1OC [Compound 16, Acridin-9-yl-(2,3-dimethoxybenzyl)-amine] ; output its category
Result: middle level

Q: Input COc1ccc2nc3ccccc3c(NCc3ccc(F)cc3)c2c1 [Compound 28] ; output its category
Result: upper level

Q: Input COc1ccc2nc3ccccc3c(NCc3ccc(C)cc3)c2c1 [Compound 26] ; output its category
Result: upper level

Q: Input COc1ccc(CNc2c3ccccc3nc3ccccc23)cc1 [Compound 7, Acridin-9-yl-(4-methoxybenzyl)-amine] ; output its category
Result: lower level

Q: Input c1coc(CNc2c3ccccc3nc3ccccc23)c1 [Compound 14, Acridin-9-yl-furan-2-ylmethyl-amine] ; output its category
Result: lower level

Q: Input COc1ccc(CNc2c3ccccc3nc3ccccc23)cc1OC [Compound 18, Acridin-9-yl-(3,4-dimethoxybenzyl)-amine] ; output its category
Result: upper level

Q: Input Fc1ccc(CNc2c3ccccc3nc3ccccc23)cc1 [Compound 10, Acridin-9-yl-(4-fluorobenzyl)-amine] ; output its category
Result: middle level

Q: Input Cc1cccc(CNc2c3ccccc3nc3ccccc23)c1 [Compound 3, Acridin-9-yl-(3-methylbenzyl)-amine] ; output its category
Result: upper level

Q: Input Fc1cccc(CNc2c3ccccc3nc3ccccc23)c1F [Compound 20, Acridin-9-yl-(2,3-difluorobenzyl)-amine] ; output its category
Result: lower level

Q: Input Cc1ccc2nc3ccccc3c(NCc3ccc(Cl)cc3)c2c1 [Compound 31] ; output its category
Result: middle level

Q: Input COc1ccc(CNc2c3ccccc3nc3ccccc23)cc1F [Compound 19] ; output its category
Result: upper level

Q: Input Fc1ccc(CNc2c3ccccc3nc3ccccc23)cc1F [Compound 22, Acridin-9-yl-(3,4-difluorobenzyl)-amine] ; output its category
Result: lower level

Q: Input COc1ccc2nc3ccccc3c(NCc3ccccc3)c2c1 [Compound 25, Benzyl-(2-methoxyacridin-9-yl)-amine] ; output its category
Result: upper level

Q: Input Fc1ccc(CNc2c3ccccc3nc3ccccc23)c(F)c1 [Compound 21, Acridin-9-yl-(2,4-difluorobenzyl)-amine] ; output its category
Result: lower level

Q: Input COc1ccc(CNc2c3ccccc3nc3ccccc23)c(OC)c1 [Compound 17, Acridin-9-yl-(2,4-dimethoxybenzyl)-amine] ; output its category
Result: lower level

Q: Input c1ccc(CNc2c3ccccc3nc3ccccc23)cc1 [Compound 1, Acridin-9-yl-benzyl-amine] ; output its category
Result: lower level

* * *

Please go through the items and note down their melting point.

melting point reading for `COc1ccc2nc3ccccc3c(NCc3ccc(C)cc3)c2c1` : 131 to 133 °C

melting point reading for `c1csc(CNc2c3ccccc3nc3ccccc23)c1` : 121 to 123 °C

melting point reading for `COc1ccc(CNc2c3ccccc3nc3ccccc23)cc1F` : 145 to 147 °C

* * *

Please go through the items and note down their inhibition at 10 µM.
# System: SW-620
# MEASUREMENT PROTOCOL: NCI-60 one-dose screen
# Assay type: cell-based
# DETAILS: Homo sapiens; SW-620, Colon Cancer panel; single dose 10^−5 M; read-out: Growth inhibition %
Report field: quantity (unit follows the number).

Measured inhibition at 10 µM for this entry `Fc1cccc(CNc2c3ccccc3nc3ccccc23)c1` on SW-620: 78%

Measured inhibition at 10 µM for this entry `c1csc(-c2ccc(CNc3c4ccccc4nc4ccccc34)cc2)c1` on SW-620: 172%

Measured inhibition at 10 µM for this entry `Cc1ccc2nc3ccccc3c(NCc3ccccc3)c2c1` on SW-620: 75.7%

Measured inhibition at 10 µM for this entry `c1ccc(CNc2c3ccccc3nc3ccccc23)cc1` on SW-620: 75.5%

Measured inhibition at 10 µM for this entry `COc1ccc(CNc2c3ccccc3nc3ccccc23)cc1` on SW-620: 74.4%

* * *

Please go through the items and note down their inhibition at 10 µM.
# System: NCI-H522
# MEASUREMENT PROTOCOL: NCI-60 one-dose screen
# Format: cell-based
# DETAILS: Homo sapiens; NCI-H522, Non-small cell lung panel; single dose 10^−5 M; read-out: Growth inhibition %
Please give a number only; it is taken to be in %.

inhibition at 10 µM reading for `COc1ccc2nc3ccccc3c(NCc3ccc(Cl)cc3)c2c1` : 65.3

inhibition at 10 µM reading for `Cc1cccc(CNc2c3ccccc3nc3ccccc23)c1` : 47.9

inhibition at 10 µM reading for `Fc1ccc(CNc2c3ccccc3nc3ccccc23)c(F)c1` : 57.7

inhibition at 10 µM reading for `Cc1ccc2nc3ccccc3c(NCc3ccccc3)c2c1` : 63

inhibition at 10 µM reading for `c1csc(-c2ccc(CNc3c4ccccc4nc4ccccc34)cc2)c1` : 71.1

inhibition at 10 µM reading for `c1coc(CNc2c3ccccc3nc3ccccc23)c1` : 52.7

inhibition at 10 µM reading for `Cc1ccc(CNc2c3ccccc3nc3ccccc23)cc1` : 51

inhibition at 10 µM reading for `Fc1cccc(CNc2c3ccccc3nc3ccccc23)c1F` : 46.1

inhibition at 10 µM reading for `Fc1ccccc1CNc1c2ccccc2nc2ccccc12` : 34.2

inhibition at 10 µM reading for `Cc1ccccc1CNc1c2ccccc2nc2ccccc12` : 50

inhibition at 10 µM reading for `COc1ccccc1CNc1c2ccccc2nc2ccccc12` : 37.6

inhibition at 10 µM reading for `COc1ccc2nc3ccccc3c(NCc3ccccc3)c2c1` : 65.4

inhibition at 10 µM reading for `COc1cccc(CNc2c3ccccc3nc3ccccc23)c1OC` : 59.9

inhibition at 10 µM reading for `COc1ccc(CNc2c3ccccc3nc3ccccc23)cc1F` : 63.8

inhibition at 10 µM reading for `c1ccc(CCNc2c3ccccc3nc3ccccc23)cc1` : 60.2

inhibition at 10 µM reading for `Cc1ccc2nc3ccccc3c(NCc3ccc(Cl)cc3)c2c1` : 45.8

inhibition at 10 µM reading for `COc1ccc(CNc2c3ccccc3nc3ccccc23)c(OC)c1` : 59.4

inhibition at 10 µM reading for `COc1ccc(CNc2c3ccccc3nc3ccccc23)cc1OC` : 81.8

* * *

# System: CCD-966SK
# MEASUREMENT PROTOCOL: MTT cell proliferation assay, CCD-966SK
# DETAILS: CCD966SK skin fibroblast; 10 µM; 72 h MTT
Would you mind labelling by % Inhibition at 10 µM? At or over 50% is yes (1), under is no (0).

Q: Could you tell me if the measured % Inhibition at 10 µM of `Cc1ccc2nc3ccccc3c(NCc3ccc(Cl)cc3)c2c1` reaches 50% or more?
Result: yes (1)

Q: Could you tell me if the measured % Inhibition at 10 µM of `Fc1cccc(CNc2c3ccccc3nc3ccccc23)c1F` reaches 50% or more?
Result: no (0)

Q: Could you tell me if the measured % Inhibition at 10 µM of `c1ccc(CCNc2c3ccccc3nc3ccccc23)cc1` reaches 50% or more?
Result: no (0)

Q: Could you tell me if the measured % Inhibition at 10 µM of `c1ccc(CNc2c3ccccc3nc3ccccc23)cc1` reaches 50% or more?
Result: no (0)

Q: Could you tell me if the measured % Inhibition at 10 µM of `Clc1cccc(CNc2c3ccccc3nc3ccccc23)c1` reaches 50% or more?
Result: no (0)

Q: Could you tell me if the measured % Inhibition at 10 µM of `Cc1cccc(CNc2c3ccccc3nc3ccccc23)c1` reaches 50% or more?
Result: yes (1)

Q: Could you tell me if the measured % Inhibition at 10 µM of `COc1ccc2nc3ccccc3c(NCc3ccc(Cl)cc3)c2c1` reaches 50% or more?
Result: no (0)

Q: Could you tell me if the measured % Inhibition at 10 µM of `Cc1ccc(CNc2c3ccccc3nc3ccccc23)cc1` reaches 50% or more?
Result: no (0)

Q: Could you tell me if the measured % Inhibition at 10 µM of `Cc1ccc2nc3ccccc3c(NCc3ccccc3)c2c1` reaches 50% or more?
Result: no (0)

Q: Could you tell me if the measured % Inhibition at 10 µM of `Fc1ccc(CNc2c3ccccc3nc3ccccc23)cc1` reaches 50% or more?
Result: yes (1)

Q: Could you tell me if the measured % Inhibition at 10 µM of `Clc1ccccc1CNc1c2ccccc2nc2ccccc12` reaches 50% or more?
Result: no (0)

Q: Could you tell me if the measured % Inhibition at 10 µM of `Fc1ccccc1CNc1c2ccccc2nc2ccccc12` reaches 50% or more?
Result: no (0)

Q: Could you tell me if the measured % Inhibition at 10 µM of `c1coc(CNc2c3ccccc3nc3ccccc23)c1` reaches 50% or more?
Result: no (0)

Q: Could you tell me if the measured % Inhibition at 10 µM of `COc1cccc(CNc2c3ccccc3nc3ccccc23)c1` reaches 50% or more?
Result: yes (1)

Q: Could you tell me if the measured % Inhibition at 10 µM of `Fc1cccc(CNc2c3ccccc3nc3ccccc23)c1` reaches 50% or more?
Result: no (0)
